test system: INS-1E rat beta cells, no cytokines, CellTiter-Glo ATP, 48 h; assay: cytokine-free beta-cell viability effect – INS-1E rat cells, ATP luminescence, cherry pick, counter-screen for beta-cell apoptosis protection project, dose response (AID 463229)
Measurement type: AC50

Look up INS-1E rat beta cells, no cytokines, CellTiter-Glo ATP, 48 h data: AC50 of `Cc1ccccc1/C=C/C(=O)c1ccc([N+](=O)[O-])o1` , then report it. 5.07 µM

Look up INS-1E rat beta cells, no cytokines, CellTiter-Glo ATP, 48 h data: AC50 of `COc1ccc(C)cc1Nc1n[n+](-c2ccccc2)c(-c2c(Cl)cccc2Cl)s1` , then report it. 4.15 µM

Look up INS-1E rat beta cells, no cytokines, CellTiter-Glo ATP, 48 h data: AC50 of `Nc1cc2c3c(cccc3c1)C(=O)N(CCN1CCCC1)C2=O` , then report it. 12.7 µM

Look up INS-1E rat beta cells, no cytokines, CellTiter-Glo ATP, 48 h data: AC50 of `C=C(C(=O)c1ccccc1)C(C(=C)C(=O)c1ccccc1)c1ccc(OC)cc1` , then report it. 7.54 µM

* * *

system: INS-1E rat beta cells, no cytokines, CellTiter-Glo ATP, 48 h; assay: cytokine-free beta-cell viability effect – INS-1E rat cells, ATP luminescence, cherry pick, counter-screen for beta-cell apoptosis protection project, dose response (AID 463229)
I'd be grateful if you could share measured AC50 for these entries.

Given `OCc1ccc(O)c2ncccc12` , respond with its AC50. 2.38 µM

Given `COc1ccc([C@H]2CC(=O)C=C(c3ccnc4ccc(Cl)cc34)C2)cc1` , respond with its AC50. 6.01 µM

Given `O=C(N/N=C/c1ccccc1)c1c(O)c2ccccc2[nH]c1=O` , respond with its AC50. 6.58 µM

* * *

system: INS-1E rat beta cells, no cytokines, CellTiter-Glo ATP, 48 h; experiment: cytokine-free beta-cell viability effect – INS-1E rat cells, ATP luminescence, cherry pick, counter-screen for beta-cell apoptosis protection project, dose response (AID 463229)
Measurement type: AC50

Given `O=S(=O)(c1ccc2nc(Nc3ccccc3)ccc2c1)N1CCCCC1` , respond with its AC50. 22.4 µM

Given `Cc1ccc(NC(=O)C2CCN(S(=O)(=O)c3ccc(N4CCCC4=O)cc3)CC2)cc1Cl` , respond with its AC50. 2.37 µM

Given `COc1ccc(N/N=C/c2c(C(=O)O)ccc3ccccc23)cc1` , respond with its AC50. 4.35 µM

Given `CC(C)(C)c1cc(CCC(=O)NNC(=S)NC(=O)c2ccccc2)cc(C(C)(C)C)c1O` , respond with its AC50. 7.17 µM

Given CCCCC(=O)N1C/C=C\C(c2ccc(OC)cc2)N(Cc2ccc(F)cc2)C(=O)[C@H]1Cc1ccccc1 (some centres undefined) , respond with its AC50. 7.74 µM

Given `O=C(Nc1nc2ccc(F)cc2s1)C1CCN(S(=O)(=O)c2cc([N+](=O)[O-])ccc2Cl)CC1` , respond with its AC50. 7.01 µM

Given `CCCCSc1ccc(NC(=O)c2cccnc2)cc1` , respond with its AC50. 14.7 µM

Given `CC(=O)c1cn(CCOc2cc(C)ccc2C)c2ccccc12` , respond with its AC50. 4.67 µM

Given `c1ccc(Nc2nc(NCc3ccco3)c3ccccc3n2)cc1` , respond with its AC50. 8.02 µM

Given `O=C(C1=C[C@@H](c2ccc(C(F)(F)F)cc2)C[C@@H](OCCCCO)O1)N1CCN(Cc2ccccc2)CC1` , respond with its AC50. 12.6 µM

Given `S=C(NCCCN1CCOCC1)N1CCN(c2nc(-c3ccc(Cl)cc3)cs2)CC1` , respond with its AC50. 12.9 µM

Given Cc1cc(C)c2nc(NNC(=O)c3ccc(S(=O)(=O)N4CC(C)CC(C)C4)cc3)sc2c1 (centres undefined) , respond with its AC50. 4.75 µM

Given `Cc1cccc(NC(=O)c2nc(S(=O)(=O)Cc3ccccc3)ncc2Cl)c1` , respond with its AC50. 15.8 µM

Given `C#CCOCCOCCOCCNc1nc(N2CCN(C(=O)CCCCCCCCCCNC(=O)[C@H]([C@@H](C)CC)n3cc(CCCCCN)nn3)CC2)nc(N2CCN(C(=O)CCCCCCCCCCNC(=O)[C@H]([C@@H](C)CC)n3cc(CCCCN=C(N)N)nn3)CC2)n1` , respond with its AC50. 6.72 µM

Given `c1ccc2c(CNC3CCCCC3)c[nH]c2c1` , respond with its AC50. 6.79 µM

Given `O=C(Nc1ccc([N+](=O)[O-])cc1)Nc1nc(-c2ccc(Cl)s2)cs1` , respond with its AC50. 1.88 µM

Given `COc1ccc(C(=O)N2CCN(c3ccc([N+](=O)[O-])c(NCCc4ccc(OC)c(OC)c4)c3)CC2)cc1` , respond with its AC50. 3.46 µM

Given `Cc1nc2ccc(NC(=O)c3cc(S(=O)(=O)N(C)c4ccccc4)ccc3Cl)cc2s1` , respond with its AC50. 2.8 µM

Given `Cc1cc(OCc2nc(-c3ccc(NC(=O)c4cccnc4)cc3)no2)ccc1Cl` , respond with its AC50. 1.16 µM
